Data provenance is patent US20160264649A1.

Readings of IC50 (neutralization) for the listed binders
system-name: HIV-1 Env of isolate MGRM-F1-006 (subtype F) (HIV-1)
assay-procedure: cell-based or functional assay

binder="PGT-137 (antibody, V domains shown) VH: EVHLEESGPGLVRPSETLSLTCTASGGSIRGGEWGDSDYHWGWVRHSPEKGLEWIGSIHWRGTTHYNAPFRGRGRLSIDLSRNQFSLRLTSVTAEDTAVYYCVKHKYHDIVMVVPIAGWFDPWGQGLQVTVSS VL: EIMMTQSPAILSVSPGDRATLSCRASQSVKNNLAWYQKRPGQAPRLLIFDTSSRASGIPARFSGGGSGTEFTLTVNSMQSEDFATYYCQQYEEWPRTFGQGTKVEIK" obs_value="> 50 µg/mL"
binder="PGT-126 (antibody, V domains shown) VH: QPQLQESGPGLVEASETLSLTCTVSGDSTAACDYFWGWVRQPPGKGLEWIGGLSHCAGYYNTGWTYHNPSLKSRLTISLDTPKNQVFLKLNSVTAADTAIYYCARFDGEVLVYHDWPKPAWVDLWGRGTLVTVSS VL: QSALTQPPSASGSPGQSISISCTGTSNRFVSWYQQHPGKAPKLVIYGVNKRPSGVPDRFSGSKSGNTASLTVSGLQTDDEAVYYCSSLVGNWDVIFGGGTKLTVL" obs_value="0.078 µg/mL"

Read the next record carefully.
Problem: Can you share its IC50 (neutralization)? I mean this binder: PGT-136 (antibody, V domains shown) VH: QLQLQESGPGLVKPSETLSLTCTVSGGSMRGTDWGENDFHYGWIRQSSAKGLEWIGSIHWRGRTTHYKTSFRSRATLSIDTSNNRFSLTFSFVTAADTAVYYCARHKYHDIFRVVPVAGWFDPWGQGLLVTVSS VL: EIVMTQSPPTLSVSPGETATLSCRASQNVKNNLAWYQLKPGQAPRLLIFDASSRAGGIPDRFSGSGYGTDFTLTVNSVQSEDFGDYFCQQYEEWPRTFGQGTKVDIK
Result: > 50 µg/mL
